assayed_target: Metabotropic glutamate receptor 8 (Rattus norvegicus)
assay_explanation: mGluR8 Gi/Go-coupled signaling modulation – cell-based, rat, thallium flux, HTS, primary screen (AID 488969)
condition_parameters: HEK293 rat mGluR8, GIRK (G protein-gated inwardly rectifying potassium channel) thallium flux, FluoZin2; at 10 µM; stronger effect = higher value; submaximal glutamate (EC20) added with thallium
The full ranking holds about 110,000 compounds; the median of “z-score” is about -0.1, and the highest 2% start at about 2. The sample holds the highest values, similar compounds and a random draw of the others, so the mix is not that of the screen.
If the reported z-score equals or exceeds -0.3, assign class 1. If not, assign class 0.

Look over these answered cases.
compound | assigned_label
CN(C)CCCNC(=O)COc1ccc(Br)cc1Cl | class 1
CC(C)C(c1nnnn1C1CCCC1)N(C)C1CCCCC1 (stereo not drawn) | class 0
O=C(Cn1cc([N+](=O)[O-])cn1)N1CCc2ccccc21 | class 1

# input Is the recorded value of z-score equal to or greater than -0.3 for this compound? Cc1snc(SCC(=O)N/N=C(\N)COc2ccc(F)cc2)c1C#N
# output class 1

# input Could you please find out whether c1ccc(C(c2ccccc2)N2CCN(c3nc4ccccc4n4cnnc34)CC2)cc1 has z-score that meets -0.3 or exceeds it?
# output class 1

# input Is reported z-score greater than or equal to -0.3 here: Nc1nc2n(n1)C(c1cccs1)CC(c1ccc(F)cc1)N2 (stereo not drawn)
# output class 1

# input z-score >= -0.3 for Nc1nc2n(n1)C(c1ccco1)CC(c1ccc(Cl)c(Cl)c1)N2 (stereo not drawn) ?
# output class 1

# input Record CCOC(=O)C1=C(Nc2ccccc2)CC(C)(O)C(C(=O)OCC)C1c1ccc(Cl)cc1 (stereo not drawn) ; criterion: z-score no lower than -0.3. Met?
# output class 0

# input Is it the case that CCSC(=O)NC12CC3CC(CC(C3)C1)C2 has z-score reaching or exceeding -0.3?
# output class 0

# input Please indicate if the recorded z-score for CC(=O)Nc1ccc2nc(C)n(Cc3ccc(Cl)cc3)c(=O)c2c1 meets or exceeds -0.3.
# output class 0
